# PROTOCOL DETAILS: Acute toxicity in ig dosed nude BALB/c mouse administered as qd measured for 14 days
# Type: organism-based
# CONDITION NOTES: in vivo, po
QUANTITY MEASURED: NOAEL at 336 h (mg/kg/day)

smiles_data=CN1C(=O)COc2c1cnc1ccc(Sc3nnc4c(F)cc(-c5cnn(C)c5)cn34)cc21.CS(=O)(=O)O val=600

---

# PROTOCOL DETAILS: Apparent oral clearance in Sprague-Dawley rat at 5 mg/kg
# Assay type: ADME, organism-based
# CONDITION NOTES: in vivo
Quick reference for CL/F among some compounds
QUANTITY MEASURED: CL/F (L/h/kg)

smiles_data=Cn1cc(-c2ccc3nnc(C(F)(F)c4ccc5ncccc5c4)n3n2)cn1 uom=L/h/kg val=0.349
smiles_data=CN1C(=O)COc2c1cnc1ccc(Sc3nnc4c(F)cc(-c5cnn(C)c5)cn34)cc21.CS(=O)(=O)O uom=L/h/kg val=0.0408
